Kindly state MIC for each of the entries shown.
- Test system: P. cepacia GIFU 518
- TEST_METHOD_NOTES: MIC, in vitro antibacterial activity (standard strains)
- Type: cell-based
- TEST_CONDITIONS: Burkholderia cepacia, GIFU518
Answer format: value, then unit.

Checklist item: MIC tested on P. cepacia GIFU 518, entry C[C@H]1CN(c2c(F)cc3c(=O)c(C(=O)O)cn(C4CC4)c3c2Cl)C[C@H]1N (relative stereo) , value?
0.39 µg/mL

Checklist item: MIC tested on P. cepacia GIFU 518, entry CNCC1CN(c2c(F)cc3c(=O)c(C(=O)O)cn(C4CC4)c3c2F)CC1C (centres unmarked) , value?
0.78 µg/mL

Checklist item: MIC tested on P. cepacia GIFU 518, entry C[C@H]1CN(c2c(F)cc3c(=O)c(C(=O)O)cn(CCF)c3c2Cl)C[C@H]1N (relative stereo) , value?
0.78 µg/mL

Checklist item: MIC tested on P. cepacia GIFU 518, entry CC1CN(c2c(F)cc3c(=O)c(C(=O)O)cn(C4CC4)c3c2Cl)CC1CN (centres unmarked) , value?
0.39 µg/mL

Checklist item: MIC tested on P. cepacia GIFU 518, entry C[C@@H]1CN(c2c(F)cc3c(=O)c(C(=O)O)cn(C4CC4)c3c2Cl)C[C@H]1N (relative stereo) , value?
0.2 µg/mL

Checklist item: MIC tested on P. cepacia GIFU 518, entry CC1CN(c2c(F)cc3c(=O)c(C(=O)O)cn(C4CC4)c3c2Cl)CC1N (centres unmarked) , value?
0.2 µg/mL

Checklist item: MIC tested on P. cepacia GIFU 518, entry CCn1cc(C(=O)O)c(=O)c2cc(F)c(N3C[C@@H](N)[C@@H](C)C3)c(F)c21 (relative stereo) , value?
0.78 µg/mL

Checklist item: MIC tested on P. cepacia GIFU 518, entry CCn1cc(C(=O)O)c(=O)c2cc(F)c(N3C[C@@H](N)[C@@H](C)C3)c(Cl)c21 (relative stereo) , value?
0.78 µg/mL

====

- System: Bacillus subtilis PCI 219
- TEST_METHOD_NOTES: MIC, in vitro antibacterial activity (standard strains)
- Assay type: cell-based
- TEST_CONDITIONS: Bacillus subtilis, PCI219; 10^6 cells/ml; Gram +; read-out: MIC
Kindly state MIC for each of the entries shown.
Answer format: value, then unit.

Quick one: MIC for CCNCC1CN(c2c(F)cc3c(=O)c(C(=O)O)cn(C4CC4)c3c2F)CC1C (stereo not shown) [Example 15] ?
0.025 µg/mL

Quick one: MIC for CCn1cc(C(=O)O)c(=O)c2cc(F)c(N3C[C@@H](N)[C@@H](C)C3)c(Cl)c21 (relative stereo) [Example 23] ?
0.05 µg/mL

Quick one: MIC for CC1CN(c2c(F)cc3c(=O)c(C(=O)O)cn(C4CC4)c3c2F)CC1N.Cl (stereo not shown) [Example 11] ?
0.025 µg/mL

Quick one: MIC for CCn1cc(C(=O)O)c(=O)c2cc(F)c(N3CCNCC3)cc21 [NFLX, norfloxacin, reference compound] ?
0.1 µg/mL

Quick one: MIC for C[C@H]1CN(c2c(F)cc3c(=O)c(C(=O)O)cn(C4CC4)c3c2F)C[C@H]1N.Cl (relative stereo) [Example 20] ?
0.025 µg/mL

Quick one: MIC for CC1CN(c2c(F)cc3c(=O)c(C(=O)O)cn(C4CC4)c3c2Cl)CC1N (stereo not shown) [Example 7] ?
0.0125 µg/mL

Quick one: MIC for CC1COc2c(N3C[C@@H](N)[C@@H](C)C3)c(F)cc3c(=O)c(C(=O)O)cn1c23.Cl (relative stereo) [Example 29] ?
0.05 µg/mL

====

Kindly state MIC for each of the entries shown.
- Tested on: B. distasonis 8503
- TEST_METHOD_NOTES: MIC, in vitro antibacterial activity (standard strains)
- Assay type: cell-based
- TEST_CONDITIONS: Parabacteroides distasonis, 8503; 10^6 cells/ml; Gram -; read-out: MIC
The answer is to be given in µg/mL; state only the numeric part.

Quick one: MIC for CNCC1CN(c2c(F)cc3c(=O)c(C(=O)O)cn(C4CC4)c3c2F)CC1C (centres unmarked) ?
3.13

Quick one: MIC for C[C@H]1CN(c2c(F)cc3c(=O)c(C(=O)O)cn(CCF)c3c2F)C[C@H]1N (relative stereo) ?
6.25

Quick one: MIC for CCNCC1CN(c2c(F)cc3c(=O)c(C(=O)O)cn(C4CC4)c3c2Cl)CC1C (centres unmarked) ?
0.39

Quick one: MIC for C[C@H]1CN(c2cc3c(cc2F)c(=O)c(C(=O)O)cn3C2CC2)C[C@H]1N (relative stereo) ?
6.25

Quick one: MIC for CC1CN(c2c(F)cc3c(=O)c(C(=O)O)cn(C4CC4)c3c2F)CC1N.Cl (centres unmarked) ?
0.78

Quick one: MIC for CCn1cc(C(=O)O)c(=O)c2cc(F)c(N3C[C@@H](N)[C@@H](C)C3)c(F)c21 (relative stereo) ?
3.13

Quick one: MIC for CCn1cc(C(=O)O)c(=O)c2cc(F)c(N3C[C@@H](N)[C@@H](C)C3)c(Cl)c21 (relative stereo) ?
3.13

Quick one: MIC for CNCC1CN(c2c(F)cc3c(=O)c(C(=O)O)cn(C4CC4)c3c2Cl)CC1C (centres unmarked) ?
0.39

Quick one: MIC for C[C@H]1CN(c2c(F)cc3c(=O)c(C(=O)O)cn(C4CC4)c3c2Br)C[C@H]1N (relative stereo) ?
0.39

Quick one: MIC for C[C@H]1CN(c2c(F)cc3c(=O)c(C(=O)O)cn(CCF)c3c2Cl)C[C@H]1N (relative stereo) ?
6.25

Quick one: MIC for CC1CN(c2c(F)cc3c(=O)c(C(=O)O)cn(C4CC4)c3c2Cl)CC1N (centres unmarked) ?
0.39

====

Kindly state MIC for each of the entries shown.
- System: Serratia marcescens IID 618
- TEST_METHOD_NOTES: MIC, in vitro antibacterial activity (standard strains)
- Type: cell-based
- TEST_CONDITIONS: Serratia marcescens, IID618; 10^6 cells/ml; Gram -; read-out: MIC
The answer is to be given in µg/mL; state only the numeric part.

Quick one: MIC for CCn1cc(C(=O)O)c(=O)c2cc(F)c(N3C[C@@H](N)[C@@H](C)C3)c(Cl)c21 (relative stereo) [Example 23] ?
0.05

Quick one: MIC for C[C@@H]1CN(c2c(F)cc3c(=O)c(C(=O)O)cn(C4CC4)c3c2Cl)C[C@H]1N (relative stereo) [Example 17] ?
0.05

Quick one: MIC for CNCC1CN(c2c(F)cc3c(=O)c(C(=O)O)cn(C4CC4)c3c2Cl)CC1C (stereo not drawn) [Example 12] ?
0.2

Quick one: MIC for CC1COc2c(N3C[C@@H](N)[C@@H](C)C3)c(F)cc3c(=O)c(C(=O)O)cn1c23.Cl (relative stereo) [Example 29] ?
0.1

Quick one: MIC for C[C@H]1CN(c2c(F)cc3c(=O)c(C(=O)O)cn(CCF)c3c2F)C[C@H]1N (relative stereo) [Example 25] ?
0.1

Quick one: MIC for CCn1cc(C(=O)O)c(=O)c2cc(F)c(N3C[C@@H](N)[C@@H](C)C3)c(F)c21 (relative stereo) [Example 22] ?
0.1

Quick one: MIC for C[C@H]1CN(c2c(F)cc3c(=O)c(C(=O)O)cn(CCF)c3c2Cl)C[C@H]1N (relative stereo) [Example 27] ?
0.1

Quick one: MIC for C[C@H]1CN(c2cc3c(cc2F)c(=O)c(C(=O)O)cn3C2CC2)C[C@H]1N (relative stereo) [Example 33] ?
0.05

Quick one: MIC for CC1CN(c2c(F)cc3c(=O)c(C(=O)O)cn(C4CC4)c3c2Cl)CC1CN (stereo not drawn) [Example 1] ?
0.1

Quick one: MIC for CNCC1CN(c2c(F)cc3c(=O)c(C(=O)O)cn(C4CC4)c3c2F)CC1C (stereo not drawn) [Example 13] ?
0.2

Quick one: MIC for CC1CN(c2c(F)cc3c(=O)c(C(=O)O)cn(C4CC4)c3c2Cl)CC1N (stereo not drawn) [Example 7] ?
0.05

Quick one: MIC for C[C@H]1CN(c2c(F)cc3c(=O)c(C(=O)O)cn4c3c2OC[C@@H]4C)C[C@H]1N.Cl (mixture of isomers) [Example 31] ?
0.1

Quick one: MIC for CC1CN(c2c(F)cc3c(=O)c(C(=O)O)cn(C4CC4)c3c2F)CC1N.Cl (stereo not drawn) [Example 11] ?
0.05

Quick one: MIC for C[C@@H]1CN(c2c(F)cc3c(=O)c(C(=O)O)cn(C4CC4)c3c2Br)C[C@H]1N (relative stereo) [Example 32] ?
0.05

Quick one: MIC for CCn1cc(C(=O)O)c(=O)c2cc(F)c(N3CCNCC3)cc21 [NFLX, norfloxacin, reference compound] ?
0.05
